Here, each record is paired with measured TGI data.
# System: K-562 leukemia
# assay protocol: NCI tumour cell line growth inhibition, 48 h

Worked set:
{"molecule": "O=C(OCC1CO1)c1cccs1 (stereo not given)", "target system": "K-562 leukemia", "TGI": "> 100 µM"}
{"molecule": "COC(=O)n1c(=O)n(-c2ccccc2)c(=O)n1C(=O)OC", "target system": "K-562 leukemia", "TGI": "> 100 µM"}
{"molecule": "C=C1C(=O)OCC2C(C(=O)O)=CC3C(C)C(C)=CC123 (stereo not given)", "target system": "K-562 leukemia", "TGI": "72.4 µM"}
{"molecule": "O=C1c2c(nc3ccccc3c2-c2ccccc2)CN1Nc1ccccn1", "target system": "K-562 leukemia", "TGI": "> 100 µM"}

Task: What does the record list as TGI for COc1ccc(-c2c(N)n(-c3cccc(C(=O)O)c3)c(=O)c3cc([N+](=O)[O-])ccc23)cc1 ?
Result: > 100 µM
